Test system: 324938-238-R-J1-PDC complex spheroids viability;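 further: viability read after seven days of drug exposure; 100% = DMSO vehicle control wells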
experiment.description: Anticancer human tumor 324938-238-R-J1-PDC patient-derived bladder carcinoma cell line growth inhibition [CLK]; active means viability on the fitted dose curve at most 10% of control; inactive means the rest
experimental.setup: second compound 3.16 µM; first compound 0.0316 µM
Labels: true (1) (active), false (0) (inactive)

- molecule: "Nc1ccccc1NC(=O)c1ccc(CNC(=O)OCc2cccnc2)cc1 + CN1CCN(c2cc(C(=O)Nc3cc4cc(-c5cnn(C)c5)ccc4cn3)ccn2)CC1"
  label.class: "true (1)"
- molecule: "COC1C=CCC(C)C(C)S(=O)(=O)NC(=O)c2ccc3c(c2)N(CC2CCC21)CC1(CCCc2cc(Cl)ccc21)CO3 (stereo not drawn) + CN1CCN(c2cc(C(=O)Nc3cc4cc(-c5cnn(C)c5)ccc4cn3)ccn2)CC1"
  label.class: "true (1)"
- molecule: "CC1COCCN1c1cc(C2(S(C)(=N)=O)CC2)nc(-c2ccnc3[nH]ccc23)n1 (stereo not drawn) + CNC(=O)c1ccc(Nc2nc(OC3CCCC3)c3c(-c4ccc5nc(C)oc5c4)c[nH]c3n2)c(OC)c1"
  label.class: "false (0)"
